System: UACC-257 melanoma
test.protocol: NCI tumour cell line growth inhibition, 48 h
Assignment: determine reported TGI for the given compounds.

Examples from the recorded data:
- compound: "CC1(C)C(=O)/C=C\\C(=O)C(C)(C)C2=CC=C(O2)C(C)(C)C(=O)/C=C\\C(=O)C(C)(C)C2=CC=C1O2"
  TGI: "> 100 µM"
- compound: "Cc1ccc([N+](=O)[O-])cc1NC1=NCCO1"
  TGI: "> 100 µM"
- compound: "Cc1ccc(Cl)c2c(N=Nc3ccccc3[N+](=O)[O-])c(O)[nH]c12"
  TGI: "> 100 µM"

Please supply TGI for each of the following items, keeping them in order.
1. O=C1CC(NC(=O)C(F)(F)F)c2c(Br)sc(N3CCNCC3)c21 (centres undefined)
2. CCCCCCCCCCCCCCNC(=O)CCC(NC(=O)c1ccc(N(C)Cc2cnc3nc(N)nc(N)c3n2)cc1)C(=O)NCCCCCCCCCCCCCC (centres undefined)
3. CCOC(=O)CCC1(C(=O)OCC)CCCCC1=O (centres undefined)
4. CCCCCCc1cc2cc(-c3csc(CC#N)n3)c(=O)oc2cc1O
5. O=c1[nH]c(Nc2cccc(CC(F)(F)F)c2)nc2nc[nH]c12
6. [N-]=[N+]=NC[C@H]1OCO[C@H](CN=[N+]=[N-])[C@@H](OCCOCCCl)[C@@H]1OCCOCCCl
7. COc1cccc(C2c3cc4c(cc3OC(C)(N3CCCC3)C2C)OCO4)c1O (centres undefined)

[A]
1. > 100 µM
2. 35.4 µM
3. > 100 µM
4. > 100 µM
5. > 100 µM
6. > 100 µM
7. > 100 µM

Please supply TGI for each of the following items, keeping them in order.
1. Nc1ccccc1S(=O)(=O)N(CC(=O)O)c1ccccc1
2. CCCCCCCCCCCC(=O)OCCOCCOCCOCCOCCOCc1ccccc1
3. CCOC(=O)CSc1c(C(=O)OCC)c(=O)n(-c2ccccc2)c(=S)n1-c1ccccc1
4. CCC(=O)[C@H](C)[C@@H](OC(=O)[C@H](C)CC)[C@H](C)[C@H]1OC(CC)=C(C)C(=O)[C@@H]1C
5. C[C@]12CCC(O)CC1=CC[C@@H]1[C@@H]2CC[C@]2(C)C(=O)[C@H](n3ccnc3)C[C@@H]12 (some centres undefined)
6. COC(CCC[N+](C)(C)C)CC[N+](C)(C)C (centres undefined)
7. Cc1ccc2c(C)c3c(ccc4ccccc43)c[n+]2c1

[A]
1. > 100 µM
2. > 100 µM
3. > 100 µM
4. > 100 µM
5. > 100 µM
6. > 100 µM
7. 77.1 µM

Please supply TGI for each of the following items, keeping them in order.
1. CCOC1Oc2ccccc2C(=O)/C1=C/Nc1ccc(C(C)=O)cc1 (centres undefined)
2. NC(N)=N/N=C/c1c(-c2ccc(N)cc2)nc2sccn12

[A]
46.9 µM
> 100 µM

Please supply TGI for each of the following items, keeping them in order.
1. O=[N+]([O-])c1ccc2c(c1)c(OCc1ccccc1)nn2Cc1ccccc1
2. CN1CCc2cc(N)cc3c2C1Cc1ccc(O)c(O)c1-3 (centres undefined)
3. O=C(CCNC12CC3CC(CC(C3)C1)C2)c1ccccc1
4. O=C(CCN1CCCCC1)C(=Cc1ccccc1)C(=O)CCN1CCCCC1
5. COc1cccc(-c2cc(-c3cccc(NS(C)(=O)=O)c3)nc(N)c2C#N)c1O

[A]
["> 100 µM", "52.9 µM", "49.4 µM", "> 100 µM", "> 100 µM"]
